Listed below: Drug uptake values for each entry.
test system: Blood; assay: Biodistribution in Sprague-Dawley rat blood at 1.48 to 2.22 MBq, iv measured at 60 mins by gamma counting analysis; assay type: ADME, organism-based; settings: in vivo, 1 h
PROPERTY_MEASURED: Drug uptake (% ID/g)

COMPOUND_STRING | ENDPOINT_VALUE
Cn1cc(-c2ccncc2)c(-c2ccc(OCc3nc4ccccc4cc3OCC[18F])cc2)n1 | 0.287
Cn1cc(-c2ccncc2)c(-c2ccc(OCc3cc([18F])c4ccccc4n3)cc2)n1 | 0.15
Cn1cc(-c2ccncc2)c(-c2ccc(OCc3cc(OCC[18F])c4ccccc4n3)cc2)n1 | 0.215
Cn1cc(-c2ccncc2)c(-c2ccc(OCc3cc(CCC[18F])c4ccccc4n3)cc2)n1 | 0.345
Cn1cc(-c2ccncc2)c(-c2ccc(OCc3cc(C[18F])c4ccccc4n3)cc2)n1 | 0.201
Cn1cc(-c2ccncc2)c(-c2ccc(OCc3cc(OCCOCCOCC[18F])c4ccccc4n3)cc2)n1 | 0.646
Cn1cc(-c2ccncc2)c(-c2ccc(OCc3cc(COCC[18F])c4ccccc4n3)cc2)n1 | 0.401

----------
test system: Bone; assay: Biodistribution in Sprague-Dawley rat bone at 1.48 to 2.22 MBq, iv measured at 5 mins by gamma counting analysis; type: ADME, organism-based, Bone element; settings: in vivo
Please respond with Yes when measured Drug uptake is strictly beneath 0.4 % ID/g, and with No in all other cases.

COMPOUND_STRING | LABEL_VALUE
Cn1cc(-c2ccncc2)c(-c2ccc(OCc3cc(OCCOCCOCC[18F])c4ccccc4n3)cc2)n1 | No
Cn1cc(-c2ccncc2)c(-c2ccc(OCc3cc(COCC[18F])c4ccccc4n3)cc2)n1 | Yes
Cn1cc(-c2ccncc2)c(-c2ccc(OCc3cc(OCC[18F])c4ccccc4n3)cc2)n1 | Yes
Cn1cc(-c2ccncc2)c(-c2ccc(OCc3nc4ccccc4cc3OCC[18F])cc2)n1 | Yes
Cn1cc(-c2ccncc2)c(-c2ccc(OCc3cc(CCC[18F])c4ccccc4n3)cc2)n1 | Yes
Cn1cc(-c2ccncc2)c(-c2ccc(OCc3cc([18F])c4ccccc4n3)cc2)n1 | No
Cn1cc(-c2ccncc2)c(-c2ccc(OCc3cc(C[18F])c4ccccc4n3)cc2)n1 | No

----------
This listing pairs compounds with measured Drug uptake.
test system: Liver; test: Biodistribution in Sprague-Dawley rat liver at 1.48 to 2.22 MBq, iv measured at 30 mins by gamma counting analysis; format: ADME, organism-based; conditions: in vivo, 0.5 h
PROPERTY_MEASURED: Drug uptake (% ID/g)

COMPOUND_STRING | UNIT_ANNOTATION | ENDPOINT_VALUE
Cn1cc(-c2ccncc2)c(-c2ccc(OCc3cc([18F])c4ccccc4n3)cc2)n1 | % ID/g | 3
Cn1cc(-c2ccncc2)c(-c2ccc(OCc3cc(COCC[18F])c4ccccc4n3)cc2)n1 | % ID/g | 0.987
Cn1cc(-c2ccncc2)c(-c2ccc(OCc3cc(CCC[18F])c4ccccc4n3)cc2)n1 | % ID/g | 5.67
Cn1cc(-c2ccncc2)c(-c2ccc(OCc3cc(OCC[18F])c4ccccc4n3)cc2)n1 | % ID/g | 6.98
Cn1cc(-c2ccncc2)c(-c2ccc(OCc3cc(OCCOCCOCC[18F])c4ccccc4n3)cc2)n1 | % ID/g | 1.53
Cn1cc(-c2ccncc2)c(-c2ccc(OCc3nc4ccccc4cc3OCC[18F])cc2)n1 | % ID/g | 3.17
Cn1cc(-c2ccncc2)c(-c2ccc(OCc3cc(C[18F])c4ccccc4n3)cc2)n1 | % ID/g | 4.01

// data source = ChEMBL document CHEMBL3627597
